Catalogue of remaining GnRH II-induced PARP cleavage, mean±S.E.M. readings, one per entry.
test system: GnRH-induced PARP cleavage (caspase 3 activation) in HEK293/rGnRHR cells; test: Inhibition of GnRH-induced PARP cleavage by chemical inhibitors; details: 100 nM GnRH II plus inhibitor, 48 h, complete medium
PROPERTY: remaining GnRH II-induced PARP cleavage, mean±S.E.M.

COc1ccc2c(c1)c(C1=C(c3c[nH]c4ccccc34)C(=O)NC1=O)cn2CCCN(C)C [Gö 6983] :: 35
CO[C@H]1[C@@H](OC)C[C@H](C)[C@@H](OC)C2=CC(=O)C=C(NC(=O)/C(C)=C/C=C\[C@H](OC)[C@@H](OC(N)=O)/C(C)=C/[C@@H]1C)C2=O [herbimycin A] :: 41
O=C1c2ccccc2-c2n[nH]c3cccc1c23 [JNKII inhibitor] :: 72
COc1cc2ncnc(Nc3cccc(Cl)c3)c2cc1OC [AG1478] :: 18
CC(C)(C)n1nc(-c2ccc(Cl)cc2)c2c(N)ncnc21 [PP2] :: 18
COc1cccc(-c2cc(=O)c3ccccc3o2)c1N [PD98059] :: 14

Each recorded value in this set is attributed to patent US9388216B2.
